Reference for the values: PubChem BioAssay (NCATS)

assay-procedure: qHTS for Inhibitors of ATXN expression: Validation of Cytotoxic Assay (AID 588349);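 further: cells exposed to compound for 72 hr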
condition-set: cytotoxicity counter-screen for ATXN expression inhibitors, cell viability; series mostly up to 57.1 µM
Results filed as inconclusive are left out. The source made the active and inactive calls. The call rests on the fitted dose curve; in most records, active means well fitted cell-killing curve with a large enough effect; inconclusive means small, poorly fitted or top-dose-only effect, or effect the other way; inactive means flat fitted curve, though single readings scatter.
Hi there, use one of these labels in your reply, thanks! active, inactive

Query string: // param item: Nc1ncnc2c1ncn2[C@@H]1O[C@H](CO)[C@@H](O)[C@H]1O ; yields the recorded call
Result string: inactive

Query string: // param item: CSc1ccc2c(c1)N(CCC1CCCCN1C)c1ccccc1S2 (stereo not drawn) ; yields the recorded call
Result string: active

Query string: // param item: N=c1c[n+](N2CCOCC2)[n-]o1 ; yields the recorded call
Result string: inactive

Query string: // param item: Nc1cc(=O)[nH]c(N)n1 ; yields the recorded call
Result string: inactive

Query string: // param item: CNCCCC1c2ccccc2C=Cc2ccccc21 ; yields the recorded call
Result string: inactive

Query string: // param item: CCCn1cnc2c1c(=O)n(CCCCC(C)=O)c(=O)n2C ; yields the recorded call
Result string: inactive

Query string: // param item: CNC(=O)Oc1ccc2c(c1)[C@]1(C)CCN(C)[C@@H]1N2C ; yields the recorded call
Result string: inactive

Query string: // param item: NC1CCN(c2cccc(Cl)n2)CC1 ; yields the recorded call
Result string: inactive

Query string: // param item: NC(=O)c1ncn([C@@H]2O[C@H](CO)[C@@H](O)[C@H]2O)n1 ; yields the recorded call
Result string: inactive

Query string: // param item: CC(C)C(=O)c1c(C(C)C)nn2ccccc12 ; yields the recorded call
Result string: inactive

Query string: // param item: CC(C)NC[C@H](O)c1ccc(O)c(O)c1 ; yields the recorded call
Result string: inactive

Query string: // param item: C#CCN(C)Cc1ccccc1 ; yields the recorded call
Result string: inactive

Query string: // param item: CN1CCN(C2Cc3ccccc3Sc3ccc(Cl)cc32)CC1 (stereo not drawn) ; yields the recorded call
Result string: active

Query string: // param item: CC1=C(CC(=O)O)c2cc(F)ccc2/C1=C\c1ccc(S(C)(=O)=O)cc1 ; yields the recorded call
Result string: inactive

Query string: // param item: CSc1ccc2c(c1)C(N1CCN(C)CC1)Cc1ccccc1S2 (stereo not drawn) ; yields the recorded call
Result string: active

Query string: // param item: C[C@]12CC[C@@H]3c4ccc(O)cc4CC[C@H]3[C@@H]1CCC2=O ; yields the recorded call
Result string: inactive

Query string: // param item: CN(C)CCOC(C)(c1ccccc1)c1ccccn1 (stereo not drawn) ; yields the recorded call
Result string: inactive

Query string: // param item: O=C1N=C(O)CN1/N=C/c1ccc(-c2ccc([N+](=O)[O-])cc2)o1 ; yields the recorded call
Result string: inactive
